Target: human TLR7 (Homo sapiens, UniProt Q9NYK1)
Sequence (Q9NYK1 27-1049): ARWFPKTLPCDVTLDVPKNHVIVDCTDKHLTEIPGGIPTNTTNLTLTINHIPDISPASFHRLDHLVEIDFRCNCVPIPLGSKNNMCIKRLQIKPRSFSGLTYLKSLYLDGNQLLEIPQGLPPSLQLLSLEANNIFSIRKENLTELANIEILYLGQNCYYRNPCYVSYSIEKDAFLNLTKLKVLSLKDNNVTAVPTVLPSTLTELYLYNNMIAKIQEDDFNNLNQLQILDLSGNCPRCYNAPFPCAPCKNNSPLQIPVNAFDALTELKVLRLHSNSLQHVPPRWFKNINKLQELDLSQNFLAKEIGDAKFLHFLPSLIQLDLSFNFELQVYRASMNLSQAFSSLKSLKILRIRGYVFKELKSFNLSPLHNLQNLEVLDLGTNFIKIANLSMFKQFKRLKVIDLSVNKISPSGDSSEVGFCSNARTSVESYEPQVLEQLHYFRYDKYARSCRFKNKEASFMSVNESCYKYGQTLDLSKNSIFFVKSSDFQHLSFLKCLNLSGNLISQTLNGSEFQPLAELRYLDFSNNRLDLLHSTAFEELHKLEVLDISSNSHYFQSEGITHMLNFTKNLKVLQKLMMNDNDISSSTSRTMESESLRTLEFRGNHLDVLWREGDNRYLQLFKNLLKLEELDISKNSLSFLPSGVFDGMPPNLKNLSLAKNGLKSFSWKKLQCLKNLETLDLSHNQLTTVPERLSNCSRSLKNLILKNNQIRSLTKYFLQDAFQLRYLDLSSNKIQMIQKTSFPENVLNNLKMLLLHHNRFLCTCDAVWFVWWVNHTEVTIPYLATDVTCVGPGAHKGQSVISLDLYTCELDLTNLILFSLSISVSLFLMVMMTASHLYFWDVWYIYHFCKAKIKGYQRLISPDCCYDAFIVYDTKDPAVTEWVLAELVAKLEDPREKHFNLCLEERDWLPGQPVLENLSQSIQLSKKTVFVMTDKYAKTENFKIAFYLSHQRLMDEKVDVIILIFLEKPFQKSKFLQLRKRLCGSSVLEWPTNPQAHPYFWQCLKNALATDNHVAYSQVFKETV
Experiment: Human TLR7 reporter assay (NF-kB-SEAP in HEK293 cells)
Settings: HEK293 cells stably carrying human TLR7 plasmid and NF-kB-SEAP reporter plasmid; 20 hours culture; final concentration 1 nM-10 μM; absorbance 405 nm; read-out: Human TLR7 binding activity (EC50)
measurementLabel: pEC50
One number for each entry, as −log10 of the molar value.

{"compound": "CCCCOc1nc(N)c2[nH]c(=O)n(CCN3CCCC(C(=O)OC)C3)c2n1 (stereo not drawn) [Example 5]", "pEC50": 6.09}
{"compound": "CCCCOc1nc(N)c2[nH]c(=O)n(CCCCCN3CCC(C(=O)OC)CC3)c2n1 [Example 1]", "pEC50": 6.84}
{"compound": "CCCCOc1nc(N)c2[nH]c(=O)n(CCCN3CCC(CC(=O)OC)CC3)c2n1 [Example 11]", "pEC50": 5.49}

Give me pEC50 for each of these compounds, listed below.
1. CCCCOc1nc(N)c2[nH]c(=O)n(CCCCCCCN3CCC(C(=O)OC)CC3)c2n1 [Example 16]
2. CCCCOc1nc(N)c2[nH]c(=O)n(CCCN3CCCC(CC(=O)OC)C3)c2n1 (stereo not drawn) [Example 12]

1. 6.84
2. 5.79

----------
Biological target: UniProt:Q9NYK1
Sequence (Q9NYK1 27-1049): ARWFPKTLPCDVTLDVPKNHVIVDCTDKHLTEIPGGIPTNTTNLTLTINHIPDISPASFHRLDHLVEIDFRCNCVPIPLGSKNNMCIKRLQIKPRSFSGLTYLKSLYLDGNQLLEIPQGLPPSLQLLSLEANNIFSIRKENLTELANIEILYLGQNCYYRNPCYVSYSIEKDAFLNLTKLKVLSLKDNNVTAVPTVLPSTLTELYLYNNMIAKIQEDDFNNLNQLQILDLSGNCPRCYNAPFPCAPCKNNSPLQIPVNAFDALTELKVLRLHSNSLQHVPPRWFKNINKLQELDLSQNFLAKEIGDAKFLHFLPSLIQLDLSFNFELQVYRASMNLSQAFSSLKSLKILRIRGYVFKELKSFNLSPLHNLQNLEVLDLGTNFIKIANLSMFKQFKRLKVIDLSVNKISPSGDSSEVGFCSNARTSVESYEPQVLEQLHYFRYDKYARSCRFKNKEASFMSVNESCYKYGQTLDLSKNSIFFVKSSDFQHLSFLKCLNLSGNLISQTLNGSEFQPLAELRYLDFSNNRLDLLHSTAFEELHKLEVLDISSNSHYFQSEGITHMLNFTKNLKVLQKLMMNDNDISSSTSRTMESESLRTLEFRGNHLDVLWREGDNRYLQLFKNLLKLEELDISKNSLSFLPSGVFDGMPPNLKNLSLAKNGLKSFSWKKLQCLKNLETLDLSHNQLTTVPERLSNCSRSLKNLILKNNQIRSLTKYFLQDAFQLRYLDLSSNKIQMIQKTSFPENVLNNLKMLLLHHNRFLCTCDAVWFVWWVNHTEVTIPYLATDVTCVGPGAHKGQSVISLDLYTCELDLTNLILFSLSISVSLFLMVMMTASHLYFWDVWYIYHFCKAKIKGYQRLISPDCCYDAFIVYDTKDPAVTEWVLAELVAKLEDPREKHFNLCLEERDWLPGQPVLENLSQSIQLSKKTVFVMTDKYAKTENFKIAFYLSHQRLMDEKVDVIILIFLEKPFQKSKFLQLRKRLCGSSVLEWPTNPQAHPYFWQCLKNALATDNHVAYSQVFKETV
Assay: Human TLR7 reporter assay (NF-kB-SEAP in HEK293 cells)
Details: HEK293 cells stably carrying human TLR7 plasmid and NF-kB-SEAP reporter plasmid; 20 hours culture; final concentration 1 nM-10 μM; absorbance 405 nm; read-out: Human TLR7 binding activity (EC50)
measurementLabel: EC50 (µM)
Give bare numbers, in µM.

Some solved cases for reference:
{"compound": "CCCCOc1nc(N)c2[nH]c(=O)n(CCCN3CCC(C(=O)OC)CC3)c2n1 [Example 8]", "measurementLabel": "EC50", "quantitativeResult": 1.23}
{"compound": "CCCCOc1nc(N)c2[nH]c(=O)n(CCN3CCN(CCC(=O)OC)CC3)c2n1 [Example 7]", "measurementLabel": "EC50", "quantitativeResult": 4.79}
{"compound": "CCCCOc1nc(N)c2[nH]c(=O)n(CCCCCN3CCCC(CC(=O)OC)C3)c2n1 (stereo not shown) [Example 3]", "measurementLabel": "EC50", "quantitativeResult": 0.571}

// input: 4 compounds below; output: EC50 for each
1. CCCCOc1nc(N)c2[nH]c(=O)n(CCCCCCN3CCC(C(=O)OC)CC3)c2n1 [Example 15]
2. CCCCOc1nc(N)c2[nH]c(=O)n(CCCCN3CCCC(C(=O)OC)C3)c2n1 (stereo not shown) [Example 19]
3. CCCCOc1nc(N)c2[nH]c(=O)n(CCCCCCCCN3CCC(C(=O)OC)CC3)c2n1 [Example 17]
4. CCCCOc1nc(N)c2[nH]c(=O)n(CCCN3CCCC(C(=O)OC)C3)c2n1 (stereo not shown) [Example 9]

1. 0.0952
2. 0.631
3. 0.148
4. 0.989

Each recorded value in this set is attributed to patent US20090192153A1.
